- measurement-target: human APJ receptor (Homo sapiens (Human))
- Sequence (P35414 whole entry): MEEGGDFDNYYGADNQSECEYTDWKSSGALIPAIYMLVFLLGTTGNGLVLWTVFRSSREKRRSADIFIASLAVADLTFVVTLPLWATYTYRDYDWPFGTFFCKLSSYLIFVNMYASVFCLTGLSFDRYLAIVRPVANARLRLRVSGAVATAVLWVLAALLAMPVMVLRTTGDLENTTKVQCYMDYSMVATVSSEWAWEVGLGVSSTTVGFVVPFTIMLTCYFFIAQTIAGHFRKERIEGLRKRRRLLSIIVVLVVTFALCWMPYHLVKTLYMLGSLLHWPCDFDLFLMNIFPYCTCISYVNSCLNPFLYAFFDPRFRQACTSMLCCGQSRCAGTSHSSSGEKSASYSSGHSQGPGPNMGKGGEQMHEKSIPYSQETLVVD
- experimental-protocol: biochemical
- measurement-context: read-out: Activity hAPJ SPA EC50 IP
outcome-measure: pEC50
pEC50 here: minus log base 10 of the concentration, concentration in moles per litre.

In plain terms, COc1cccc(-c2nnc(NS(=O)(=O)[C@@H](C)[C@@H](OC(C)C)c3ncc(C)cn3)n2-c2c(OC)cccc2OC)n1 (single isomer, unassigned) has a documented pEC50 of 9.96

// sample COc1cccc(-c2nnc(NS(=O)(=O)CC3CC3)n2-c2c(OC)cccc2OC)n1 , its pEC50 was 6.96

Query molecule follows.
In plain terms, COc1cccc(-c2nnc(NS(=O)(=O)[C@@H](C)[C@H](OC)c3ncc(C)cn3)n2-c2ccc(F)cc2Cl)n1 (atropisomer, axis not shown; (P)) has a documented pEC50 of 7.82

Ref: patent US10058550B2
